B1: MLL5 (parent)
chain: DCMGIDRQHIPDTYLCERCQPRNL

- Variants of: B1
- procedure details: protein stability index of a GFP-peptide fusion (GPS, HEK-293T) (PSI 1-6); higher = more stable;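 further: lentivirally expressed fusions sorted by FACS into six bins by GFP to DsRed ratio, PSI derived from sequencing read proportions per bin multiplied by bin number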
- experimental conditions: c terminus: a fixed tail appended
metric name: protein stability index
The response must contain the number and no unit.

Examples with answers:
sequence variant	protein stability index
I5Y	2.61
R18K	2.63
R18S	3.12
N23E	2.86
D1R	2.42
R7E	3.58
N23I	2.29
D6L	2.31

Report measured protein stability index; entry is `I5P`
3.27

Return value of protein stability index for input `C19A` , no commentary.
4.26

Could you please provide reported protein stability index for `I5F` ? Thanks!
2.85

Output measured protein stability index for this item: `R22K`
3.19

Give the reported value of protein stability index for this record: `I10N`
3.3

Annotate the variant `P21N` with its measured protein stability index.
3.21

Return protein stability index for the following variant: `P21Q`
3.93

Give protein stability index for the following variant: `I5R`
3.37

Identify protein stability index associated with the variant `M3A`
2.48

Report measured protein stability index; entry is `P11S`
2.23

Determine from records and report protein stability index for `Q8W`
1.76

Identify measured protein stability index associated with `R22Y`
2.49

Identify measured protein stability index corresponding to `C19G`
3.63
